Source of measurements: patent US4962109A

- Tested on: Musca domestica (houseflies - adults)
- METHOD_DESCRIPTION: Contact test on houseflies - adults (MD), Cotton wool/sugar, mortality
- Type: in vivo
- EXPERIMENTAL_CONTEXT: 72 h, 500 ppm, contact, 3 days, read-out: MD grading of mortality

[
  {
    "MOLECULE": "CN(C)c1ncc(C(C(=O)OCc2ccc(F)c(Oc3ccccc3)c2)C(C)(C)C)cn1 (racemic)",
    "mortality at 500 ppm": "< 50%"
  },
  {
    "MOLECULE": "CC(C)(C)c1ncc(C(C(=O)OCc2c(F)c(F)c(COc3ccccc3)c(F)c2F)C(C)(C)C)cn1 (racemic)",
    "mortality at 500 ppm": "< 50%"
  },
  {
    "MOLECULE": "C=CCc1c(F)c(F)c(COC(=O)C(c2cnc(C(F)(F)F)nc2)C(C)C)c(F)c1F (racemic)",
    "mortality at 500 ppm": "80 to 100%"
  },
  {
    "MOLECULE": "CC(C)(C)c1ncc(C(C(=O)OCc2c(F)c(F)c(F)c(F)c2F)C(C)(C)C)cn1 (racemic)",
    "mortality at 500 ppm": "80 to 100%"
  },
  {
    "MOLECULE": "COCc1c(F)c(F)c(COC(=O)C(c2cnc(C(F)(F)F)nc2)C(C)(C)C)c(F)c1F (racemic)",
    "mortality at 500 ppm": "80 to 100%"
  },
  {
    "MOLECULE": "CC(C)(C)c1ncc(C(C(=O)OCN2C(=O)C3=C(CCCC3)C2=O)C(C)(C)C)cn1 (racemic)",
    "mortality at 500 ppm": "< 50%"
  },
  {
    "MOLECULE": "CC(C)(C)c1ncc(C(C(=O)OCc2c(F)c(F)c(Cc3ccccc3)c(F)c2F)C(C)(C)C)cn1 (racemic)",
    "mortality at 500 ppm": "< 50%"
  }
]
